Target: UniProt:Q5VWK5
Sequence (Q5VWK5 22-629): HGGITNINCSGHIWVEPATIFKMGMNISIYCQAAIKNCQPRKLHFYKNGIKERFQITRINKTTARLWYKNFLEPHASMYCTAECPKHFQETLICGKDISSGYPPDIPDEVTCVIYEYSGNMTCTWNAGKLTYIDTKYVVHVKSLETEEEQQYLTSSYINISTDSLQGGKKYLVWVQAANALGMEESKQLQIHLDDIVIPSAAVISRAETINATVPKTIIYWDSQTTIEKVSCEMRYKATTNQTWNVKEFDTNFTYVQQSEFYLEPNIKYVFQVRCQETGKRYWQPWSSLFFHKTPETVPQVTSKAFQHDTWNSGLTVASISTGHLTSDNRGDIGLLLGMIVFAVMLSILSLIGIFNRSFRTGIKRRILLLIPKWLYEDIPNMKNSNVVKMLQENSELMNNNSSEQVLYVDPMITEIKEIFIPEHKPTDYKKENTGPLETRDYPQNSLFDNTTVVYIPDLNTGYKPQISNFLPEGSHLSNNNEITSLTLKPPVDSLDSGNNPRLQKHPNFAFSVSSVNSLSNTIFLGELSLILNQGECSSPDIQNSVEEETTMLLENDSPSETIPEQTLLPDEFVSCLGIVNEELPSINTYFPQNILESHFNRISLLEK
Test: biochemical
Settings: read-out: % displacement (hIL-23R NIuc)
*1 amine or outer side, *2 acyl side, *3 side chain or, on linkers, in order; H or OH if unused. Where a SMILES comes first, the peptide text is derived from it. Bridges are numbered along the chain shown (N, C = ends). [ ]: non-standard residue; d: D form. X8 = O=C(CC[C@@H](N[*:2])C(=O)[*:3])[*:1]; 2Nal = N[C@@H](Cc1ccc2ccccc2c1)C(=O)O; AEF = NCCOc1ccc(C[C@H](N)C(=O)O)cc1; 3Pal = N[C@@H](Cc1cccnc1)C(=O)O; αMeL = CC(C)C[C@](C)(N)C(=O)O; Dab = NCC[C@H](N)C(=O)O
parameter: Emax (%)
Give bare numbers, in %.

Worked examples, 2 molecules total:
CNC(=O)[C@H](Cc1cccnc1)NC(=O)[C@H](CCN)NC(=O)[C@@H]1CCC(=O)NCCCC[C@@H]2NC(=O)CC[C@H](NC(=O)[C@H](CCC(N)=O)NC(=O)[C@H](Cc3c[nH]c4ccccc34)NC(=O)CCNC2=O)C(=O)N[C@@H](CC2CC2)C(=O)N[C@@H](Cc2ccc3ccccc3c2)C(=O)N[C@@](C)(CC(C)C)C(=O)N1	101
CNC(=O)[C@H](Cc1cccnc1)NC(=O)[C@H](CCN)NC(=O)[C@@H]1CCNC(=O)[C@H]2CCC(=O)N[C@@H](Cc3c[nH]c4ccccc34)C(=O)N[C@@H](CCC(N)=O)C(=O)N[C@@H](CCC(=O)N2)C(=O)N[C@@H](Cc2ccc(OCCN)cc2)C(=O)N[C@@H](Cc2ccc3ccccc3c2)C(=O)N[C@@](C)(CC(C)C)C(=O)N1 [Compound 109] (WQE[AEF][2Nal][αMeL][Dab][Dab][3Pal]-NHMe; linker N-3-7 via X8)	96

Consider the additional molecule presented here.
Report Emax from UniProt:Q5VWK5 testing of CNC(=O)[C@H](Cc1cccnc1)NC(=O)[C@H](CCN)NC(=O)[C@@H]1CCC(=O)NCCCC[C@@H]2NC(=O)CC[C@H](NC(=O)[C@H](CCC(N)=O)NC(=O)[C@H](Cc3c[nH]c4ccccc34)NC(=O)CCNC2=O)C(=O)N[C@@H](Cc2cccnc2)C(=O)N[C@@H](Cc2ccc3ccccc3c2)C(=O)N[C@@](C)(CC(C)C)C(=O)N1
101
